LC50 values by entry
Tested on: Nematode J2
assay.explanation: Plant pathogenic nematode inhibition test by dipping: second-stage juveniles
Type: in vivo
test.conditions: in vivo

| compound | unit | LC50 |
| --- | --- | --- |
| O=C1CC(C(=O)OCCC(F)=C(F)F)C(c2ccccc2OC(F)(F)F)O1 (centres unmarked) | µg/mL | 13.86 |
| O=C1CC(C(=O)OCCC(F)=C(F)F)C(c2c(F)cccc2C(F)(F)F)O1 (centres unmarked) | µg/mL | 10.07 |
| O=C1CC(C(=O)OCCC(F)=C(F)F)C(c2cccc(Oc3cccc(C(F)(F)F)c3)c2)O1 (centres unmarked) | µg/mL | 13.28 |
| O=C1CC(C(=O)OCCC(F)=C(F)F)C(c2cccc(Cl)c2)O1 (centres unmarked) | µg/mL | 13.01 |
| CCCCc1ccc(C2OC(=O)CC2C(=O)OCCC(F)=C(F)F)cc1 (centres unmarked) | µg/mL | 13.45 |
| O=C1CC(C(=O)OCCC(F)=C(F)F)C(c2cc(Cl)cc(Cl)c2)O1 (centres unmarked) | µg/mL | 16.25 |
| O=C1CC(C(=O)OCCC(F)=C(F)F)C(c2cc(Cl)ccc2Cl)O1 (centres unmarked) | µg/mL | 13.30 |
| O=C1CC(C(=O)OCCC(F)=C(F)F)C(c2ccccc2F)O1 (centres unmarked) | µg/mL | 17.24 |
| O=C1CC(C(=O)OCCC(F)=C(F)F)C(c2ccc(Oc3ccc(Cl)cc3)cc2)O1 (centres unmarked) | µg/mL | 14.16 |
| O=C1CC(C(=O)OCCC(F)=C(F)F)C(c2cccc(Cl)c2Cl)O1 (centres unmarked) | µg/mL | 13.14 |
| CCCc1ccc(C2OC(=O)CC2C(=O)OCCC(F)=C(F)F)cc1 (centres unmarked) | µg/mL | 9.777 |
| O=C1CC(C(=O)OCCC(F)=C(F)F)C(c2ccc(OCc3ccc(F)cc3)cc2)O1 (centres unmarked) | µg/mL | 13.47 |
| O=C1CC(C(=O)OCCC(F)=C(F)F)C(c2ccc(F)cc2)O1 (centres unmarked) | µg/mL | 12.532 |
| O=C1CC(C(=O)OCCC(F)=C(F)F)C(c2ccc(Cl)cc2)O1 (centres unmarked) | µg/mL | 12.69 |
| O=C1CC(C(=O)OCCC(F)=C(F)F)C(c2cc(F)c(F)c(F)c2)O1 (centres unmarked) | µg/mL | 10.96 |
| CCOc1ccc(C2OC(=O)CC2C(=O)OCCC(F)=C(F)F)cc1 (centres unmarked) | µg/mL | 13.12 |
| COc1cccc(C2OC(=O)CC2C(=O)OCCC=C(F)F)c1 (centres unmarked) | µg/mL | 12.64 |
